Experiment: Cmax in mouse at 1000 mg/kg/day, po measured after 1 day
Format: ADME, organism-based
Design: route oral, dose 1000 mg/kg/day, time 1 day
Conditions: in vivo
Reported property: Cmax (ng/mL)

{"columns": ["Mol smiles", "Scale unit", "Readout number"],
 "data": [
  ["Cc1ccc(-c2c(C)nc(-c3cccc(F)c3O)n(CCc3ccccc3)c2=O)s1", "ng/mL", 2960]
]}

* * *

Assay: AUC (0 to t) in mouse at 300 mg/kg/day, po measured after 1 day
Format: ADME, organism-based
Design: time 1 day, dose 300 mg/kg/day
Settings: in vivo
Reported property: AUC(0-t) at 24 h

{"columns": ["Mol smiles", "Result"],
 "data": [
  ["Cc1ccc(-c2c(C)nc(-c3cccc(F)c3O)n(CCc3ccccc3)c2=O)s1", "2880 ng·h/mL"]
]}

* * *

Test: Cmax in rat at 300 mg/kg/day measured after 10 days
Format: ADME, organism-based
Set-up: time 10 day, dose 300 mg/kg/day
Conditions: in vivo
Reported property: Cmax (ng/mL)

{"columns": ["Mol smiles", "Scale unit", "Readout number"],
 "data": [
  ["Cc1ccc(-c2c(C)nc(-c3cccc(F)c3O)n(CCc3ccccc3)c2=O)s1", "ng/mL", 360]
]}

* * *

Assay: AUC (0 to t) in mouse at 300 mg/kg/day, po measured after 10 days
Format: ADME, organism-based
Parameters: time 10 day, dose 300 mg/kg/day
Conditions: in vivo
Reported property: AUC(0-t) at 240 h (ng·h/mL)

{"columns": ["Mol smiles", "Readout number"],
 "data": [
  ["Cc1ccc(-c2c(C)nc(-c3cccc(F)c3O)n(CCc3ccccc3)c2=O)s1", 1260]
]}

* * *

Experiment: Cmax in mouse at 1000 mg/kg/day, po measured after 10 days
Type: ADME, organism-based
Design: route oral, dose 1000 mg/kg/day, time 10 day
Conditions: in vivo
Reported property: Cmax (ng/mL)

{"columns": ["Mol smiles", "Reported property", "Readout number"],
 "data": [
  ["Cc1ccc(-c2c(C)nc(-c3cccc(F)c3O)n(CCc3ccccc3)c2=O)s1", "Cmax", 680]
]}

* * *

Molecular target: Nuclear receptor subfamily 1 group I member 2 (Homo sapiens, UniProt O75469)
Sequence (O75469 whole entry): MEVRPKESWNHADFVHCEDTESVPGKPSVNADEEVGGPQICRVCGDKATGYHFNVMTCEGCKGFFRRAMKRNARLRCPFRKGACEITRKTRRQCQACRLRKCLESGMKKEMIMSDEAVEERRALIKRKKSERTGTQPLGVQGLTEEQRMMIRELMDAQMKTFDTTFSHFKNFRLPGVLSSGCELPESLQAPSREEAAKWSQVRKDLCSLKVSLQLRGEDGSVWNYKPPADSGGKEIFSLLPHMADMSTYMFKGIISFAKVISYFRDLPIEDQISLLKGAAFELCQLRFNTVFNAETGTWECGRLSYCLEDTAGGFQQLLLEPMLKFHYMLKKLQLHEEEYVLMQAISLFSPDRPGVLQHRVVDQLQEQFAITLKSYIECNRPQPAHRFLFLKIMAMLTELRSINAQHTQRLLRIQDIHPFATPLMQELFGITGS
Experiment: Activation of full length human PXR expressed in human HepG2 cells co-expressing luciferase of CYP3A4 promoter transcription assessed as increase of luciferase activity preincubated for 24 hrs followed by addition of luciferase substrate and measured by hPXR Gene reporter assay
Type: ADME, cell-based
Here the recorded EC50 is given for each entry.

{"columns": ["Mol smiles", "Relation operator", "EC50 (µM)"],
 "data": [
  ["Cc1ccc(-c2nc(CCc3ccccc3)c(-c3cccc(F)c3O)nc2C)s1", "=", 3.2],
  ["Cc1ccc(-c2c(C)nc(-c3cccc(F)c3O)n(CCc3ccccc3)c2=O)s1", "=", 2.5],
  ["Cc1nc(-c2cccc(F)c2O)n(CCc2ccccc2)c(=O)c1-c1ccc(-c2ccccc2)s1", "=", 8],
  ["Cc1nc(-c2cccc(F)c2O)n(CCc2ccccc2)c(=O)c1-c1cc(-c2ccccn2)c(C)s1", ">", 50],
  ["Cc1nc(-c2cccc(F)c2O)n(CCc2ccccc2)c(=O)c1-c1ccc(-c2ccccn2)s1", "=", 5]
]}

* * *

Experiment: Cmax in mouse at 2000 mg/kg/day, po measured after 1 day
Format: ADME, organism-based
Design: route oral, dose 2000 mg/kg/day, time 1 day
Conditions: in vivo
Reported property: Cmax (µg/mL)

{"columns": ["Mol smiles", "Readout number"],
 "data": [
  ["Cc1ccc(-c2c(C)nc(-c3cccc(F)c3O)n(CCc3ccccc3)c2=O)s1", 3.6]
]}

* * *

Assay: Cmax in mouse at 300 mg/kg/day, po measured after 10 days
Type: ADME, organism-based
Set-up: route oral, time 10 day, dose 300 mg/kg/day
Conditions: in vivo
Reported property: Cmax

{"columns": ["Mol smiles", "Result"],
 "data": [
  ["Cc1ccc(-c2c(C)nc(-c3cccc(F)c3O)n(CCc3ccccc3)c2=O)s1", "820 ng/mL"]
]}

* * *

Here the recorded EC50 is given for each entry.
Target: Nuclear receptor subfamily 1 group I member 2 (Homo sapiens)
Test: Activation of full length human PXR expressed in human HepG2 cells co-expressing luciferase of CYP3A4 promoter transcription assessed as increase of luciferase activity preincubated for 24 hrs followed by addition of luciferase substrate and measured by hPXR Gene reporter assay

{"columns": ["Mol smiles", "Scale unit", "Relation operator", "EC50"],
 "data": [
  ["Cc1ncc(-c2c(C)nc(-c3cccc(F)c3O)n(CCc3ccccc3)c2=O)s1", "µM", ">", 10],
  ["Cc1nc(-c2cccc(F)c2O)n(CCc2ccccc2)c(=O)c1Cc1ccccc1", "µM", "=", 1],
  ["Cc1nc(-c2cccc(F)c2O)n(CCc2ccccc2)c(=O)c1-c1ccc(CO)s1", "µM", "=", 13]
]}

* * *

Assay: AUC (0 to t) in mouse at 1000 mg/kg/day, po measured after 1 day
Assay type: ADME, organism-based
Design: time 1 day, dose 1000 mg/kg/day
Conditions: in vivo

{"columns": ["Mol smiles", "AUC(0-t) at 24 h / ng·h/mL"],
 "data": [
  ["Cc1ccc(-c2c(C)nc(-c3cccc(F)c3O)n(CCc3ccccc3)c2=O)s1", 10800]
]}

* * *

Experiment: Cmax in mouse at 300 mg/kg/day, po measured after 1 day
Format: ADME, organism-based
Parameters: route oral, dose 300 mg/kg/day, time 1 day
Settings: in vivo

{"columns": ["Mol smiles", "Cmax / ng/mL"],
 "data": [
  ["Cc1ccc(-c2c(C)nc(-c3cccc(F)c3O)n(CCc3ccccc3)c2=O)s1", 980]
]}

* * *

Test: AUC (0 to t) in rat at 300 mg/kg/day measured after 1 day
Assay type: ADME, organism-based
Set-up: dose 300 mg/kg/day, time 1 day
Details: in vivo

{"columns": ["Mol smiles", "AUC(0-t) at 24 h [ng·h/mL]"],
 "data": [
  ["Cc1ccc(-c2c(C)nc(-c3cccc(F)c3O)n(CCc3ccccc3)c2=O)s1", 2500]
]}

* * *

Assay: AUC (0 to t) in rat at 100 mg/kg/day measured after 10 days
Format: ADME, organism-based
Parameters: time 10 day, dose 100 mg/kg/day
Conditions: in vivo
Reported property: AUC(0-t) at 240 h

{"columns": ["Mol smiles", "Reported property", "Result"],
 "data": [
  ["Cc1nc(-c2cccc(F)c2O)n(CCc2ccccc2)c(=O)c1-c1cc(-c2ccccn2)c(C)s1", "AUC(0-t) at 240 h", "41100 ng·h/mL"]
]}

* * *

Biological target: PXR (NR1I2) (Homo sapiens, UniProt O75469)
Sequence (O75469 whole entry): as above
Assay: Activation of full length human PXR expressed in human HepG2 cells co-expressing luciferase of CYP3A4 promoter transcription assessed as increase of luciferase activity at 50 uM preincubated for 24 hrs followed by addition of luciferase substrate and measured by hPXR Gene reporter assay relative to control
Assay type: ADME, cell-based
Here the recorded Emax at 24 h, 50 µM is given for each entry.
Reported property: Emax at 24 h, 50 µM (%)

{"columns": ["Mol smiles", "Study target", "Reported property", "Scale unit", "Readout number"],
 "data": [
  ["Cc1ncc(-c2c(C)nc(-c3cccc(F)c3O)n(CCc3ccccc3)c2=O)s1", "PXR (NR1I2) (Homo sapiens, UniProt O75469)", "Emax at 24 h, 50 µM", "%", 40],
  ["Cc1nc(-c2cccc(F)c2O)n(CCc2ccccc2)c(=O)c1-c1cc(-c2ccccn2)c(C)s1", "PXR (NR1I2) (Homo sapiens, UniProt O75469)", "Emax at 24 h, 50 µM", "%", 9],
  ["Cc1ccc(-c2c(C)nc(-c3cccc(F)c3O)n(CCc3ccccc3)c2=O)s1", "PXR (NR1I2) (Homo sapiens, UniProt O75469)", "Emax at 24 h, 50 µM", "%", 122],
  ["Cc1nc(-c2cccc(F)c2O)n(CCc2ccccc2)c(=O)c1-c1ccc(-c2ccccn2)s1", "PXR (NR1I2) (Homo sapiens, UniProt O75469)", "Emax at 24 h, 50 µM", "%", 36],
  ["Cc1ccc(-c2nc(CCc3ccccc3)c(-c3cccc(F)c3O)nc2C)s1", "PXR (NR1I2) (Homo sapiens, UniProt O75469)", "Emax at 24 h, 50 µM", "%", 110],
  ["Cc1nc(-c2cccc(F)c2O)n(CCc2ccccc2)c(=O)c1Cc1ccccc1", "PXR (NR1I2) (Homo sapiens, UniProt O75469)", "Emax at 24 h, 50 µM", "%", 250],
  ["Cc1nc(-c2cccc(F)c2O)n(CCc2ccccc2)c(=O)c1-c1ccc(-c2ccccc2)s1", "PXR (NR1I2) (Homo sapiens, UniProt O75469)", "Emax at 24 h, 50 µM", "%", 60],
  ["Cc1nc(-c2cccc(F)c2O)n(CCc2ccccc2)c(=O)c1-c1ccc(CO)s1", "PXR (NR1I2) (Homo sapiens, UniProt O75469)", "Emax at 24 h, 50 µM", "%", 31]
]}
